Value source: patent US8859615B2

Assay: Human PBMC lymphocyte viability by actual cell counts (hemacytometer; Tables 8A, 8B, FIG. 9)
Format: cell-based
Settings: human
ENDPOINT: viability at 24 h, 1 µM (%)

> print(dat)
                                 mol.smiles  reported.result
1  C=C[C@H](O)C#CC#CC[C@H]1OC(C)(C)O[C@@H]1CCCCCCC             78.4

----------
Tested on: CCRF-CEM human T-cell acute lymphoblastic leukemia cells
Test: In vitro cytotoxicity against CCRF-CEM (XTT / CCK-8 tetrazolium assay, 72 hr)
Settings: Homo sapiens, CCRF-CEM, 72 h, read-out: CCRF-CEM (IC50 in μM), Table 3A-2; CCK-8, 72-hr exposure

MOL SMILES	UNIT ABBREV	IC50
C=C[C@H](O)C#CC#CC[C@H]1OC(C)(C)O[C@@H]1CCCCCCC	µM	1.14
CC[C@]1(O)C[C@@H]2CN(CCc3c([nH]c4ccccc34)[C@@](C(=O)OC)(c3cc4c(cc3OC)N(C)[C@H]3[C@@](O)(C(=O)OC)[C@H](OC(C)=O)[C@]5(CC)C=CCN6CC[C@]43[C@@H]65)C2)C1	µM	0.0011
CC(=O)O[C@H]1C(=O)[C@@]2(C)[C@H]([C@H](OC(=O)c3ccccc3)[C@]3(O)C[C@H](OC(=O)[C@H](O)[C@@H](NC(=O)c4ccccc4)c4ccccc4)C(C)=C1C3(C)C)[C@]1(OC(C)=O)CO[C@@H]1C[C@@H]2O	µM	0.0013
C=C[C@@H](O)C#CC#CC[C@@H](O)[C@H](O)CCCCCCC	µM	3.68

----------
Assay: Human PBMC lymphocyte viability by actual cell counts (hemacytometer; Tables 8A, 8B, FIG. 9)
Assay type: cell-based
Settings: human
ENDPOINT: viability at 72 h, 0.3 µM

> print(dat)
                                 mol.smiles                   endpoint  reported.result
1  C=C[C@H](O)C#CC#CC[C@H]1OC(C)(C)O[C@@H]1CCCCCCC  viability at 72 h, 0.3 µM             108%

----------
Experiment: Human PBMC lymphocyte viability by actual cell counts (hemacytometer; Tables 8A, 8B, FIG. 9)
Assay type: cell-based
Conditions: human
ENDPOINT: viability at 120 h, 3 µM (%)

> print(dat)
                                   molecule                  endpoint  reported.result
1  C=C[C@H](O)C#CC#CC[C@H]1OC(C)(C)O[C@@H]1CCCCCCC [Compound (D)]  viability at 120 h, 3 µM               68

----------
Assay: Human PBMC lymphocyte viability by actual cell counts (hemacytometer; Tables 8A, 8B, FIG. 9)
Type: cell-based
Details: human; 3.0 μM, 72-hrs; read-out: viable cells relative to the starting point (control)
ENDPOINT: viability at 72 h, 3 µM (%)

> print(dat)
                                 mol.smiles  reported.result
1  C=C[C@@H](O)C#CC#CC[C@@H](O)[C@H](O)CCCCCCC             82.2

----------
Test system: human mammary carcinoma MX-1 cells
Assay: In vitro drug combination (median-effect / combination index, DRI) against MX-1 cell growth (Tables 5, 5A)
Type: cell-based
Conditions: Homo sapiens, MX1, 72 h, read-out: Dose-effect parameter Dm (IC50)
ENDPOINT: IC50 (µM)

> print(dat)
                                   compound  endpoint  unit.abbrev  reported.result
1  C=C[C@@H](O)C#CC#CC[C@@H](O)[C@H](O)CCCCCCC [panaxytriol]      IC50           µM             3.19
